A collection of binders and their measured kon
# test target: T1, human TNFR1 (recombinant, R&D Systems cat no. 636-R1/CF, biotinylated) (human, UniProt P19438 30-211, limits assumed, biotinylated with EZ-Link NHS-LC-LC-biotin)
# T1 construct: it is not tied to the BIAcore reagent; also called p55; hTNFR1
# T1 sequence (looked up): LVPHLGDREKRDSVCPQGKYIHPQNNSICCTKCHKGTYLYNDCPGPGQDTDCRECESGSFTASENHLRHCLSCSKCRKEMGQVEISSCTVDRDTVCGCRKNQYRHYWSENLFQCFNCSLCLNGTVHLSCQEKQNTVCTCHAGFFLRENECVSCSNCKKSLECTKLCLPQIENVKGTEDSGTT
# measurement protocol: BIAcore, human TNFR1 on SA chip
Answer in M⁻¹ s⁻¹, number only, no unit symbol.

Solved entries (count: 4):
binder="DOM1h-574-133 (other, VH dAb) VH: EVQLLESGGGLVQPGGSLRLSCAASGFTFVKYSMGWVRQAPGKGLEWVSQISDTADRTYYDHSVKGRFTISRDNSKNTLYLQMNSLRAEDTAVYYCAIYTGRWEPFVYWGQGTLVTVSS" units_label="M⁻¹ s⁻¹" recorded_result=260000
binder="DOM1h-574-72 (other, VH dAb; expressed in E. coli, purified on Protein A) VH: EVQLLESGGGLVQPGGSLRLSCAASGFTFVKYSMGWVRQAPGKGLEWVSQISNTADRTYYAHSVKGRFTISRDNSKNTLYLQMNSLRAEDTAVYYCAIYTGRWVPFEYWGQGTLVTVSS" units_label="M⁻¹ s⁻¹" recorded_result=250000
binder="DOM1h-574-156 (other, VH dAb) VH: EVQLLESGGGLVQPGGSLRLSCAASGFTFFKYSMGWVRQAPGKGLEWVSQISDTADRTYYAHSVKGRFTISRDNSKNTLYLQMNSLRAEDTAVYYCAIYTGRWVPFEYWGQGTLVTVSS" units_label="M⁻¹ s⁻¹" recorded_result=300000
binder="DOM1h-574-138 (other, VH dAb) VH: EVQLLESGGGLVQPGGSLRLSCAASGFTFFKYSMGWVRQAPGKGLEWVSQISDTADRTYYAHSVKGRFTISRDNSKNTLYLQMNSLRAEDTAVYYCAIYTGRWAPFEYWGQGTLVTVSS" units_label="M⁻¹ s⁻¹" recorded_result=250000

Recorded kon of DOM1h-574-135 (other, VH dAb) VH: EVQLLESGGGLVQPGGSLRLSCAASGFTFVKYSMGWVRQAPGKGLEWVSQISDTADRTYYTHSVKGRFTISRDNSKNTLYLQMNSLRAEDTAVYYCAIYTGRWVPFEYWGQGTLVTVSS , please.
250000
